Biological target: α2 GlyR (Homo sapiens, UniProt P23416)
Construct: expressed in transfected cells; host or cells: CHO cells
Sequence (P23416 28-452 isoform P23416-2 limits assumed): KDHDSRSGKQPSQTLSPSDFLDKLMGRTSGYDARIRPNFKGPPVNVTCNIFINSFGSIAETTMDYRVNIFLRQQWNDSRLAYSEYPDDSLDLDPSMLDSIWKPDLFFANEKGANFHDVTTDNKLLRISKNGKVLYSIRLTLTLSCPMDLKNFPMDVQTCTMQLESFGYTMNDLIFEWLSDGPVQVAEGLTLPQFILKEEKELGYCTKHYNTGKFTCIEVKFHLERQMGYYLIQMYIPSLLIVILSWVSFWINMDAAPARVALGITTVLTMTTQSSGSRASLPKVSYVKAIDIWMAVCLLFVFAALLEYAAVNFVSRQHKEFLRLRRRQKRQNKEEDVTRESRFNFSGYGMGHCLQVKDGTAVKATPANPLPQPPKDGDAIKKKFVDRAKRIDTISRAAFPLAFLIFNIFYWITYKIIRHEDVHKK
Test: Whole-cell patch-clamp of glycine-induced currents, α2 GlyR expressed in CHO cells
Assay type: cell-based
Conditions: −80 mV; glycine 100 μM; representative; read-out: NFA IC50 (representative IC50 curve)
Metric: pIC50
Numbers only, as −log10 of the molar value.

Ask | Fill blank: measured pIC50 of the molecule O=C(O)c1cccnc1Nc1cccc(C(F)(F)F)c1 [NFA, Niflumic acid] is ____.
Reply | 4.00
